assay: folding stability dG unfold from chymotrypsin proteolysis; higher = more stable
Quantity: folding stability dG unfold (kcal/mol)
Write the answer as a number in kcal/mol, unit excluded.

Example results:
Residue string: SASVEEVIEEAKELAKKLGAYVIVTVYKNNKKIGTYEYPSPSKNSPPTSITIESPDPNYKVKITIYPPGSAG [r14_728_JUSTAS]
Uom: kcal/mol
folding stability dG unfold: 3.12

Residue string: SAGGSAGGSEVKTKVTLKREDPGSASTSTVDLPKEEAEKLIKEGKEIKLPSGKKASFTKVVPESAGGSAGGS [r12_432_JUSTAS]
Uom: kcal/mol
folding stability dG unfold: -0.18

Residue string: SAGGSAGGSAGKPKKPKLVKVKITLPNGEKKEIITEDVEEVIKEINEEFGAIKIEVEEIKSAGGSAGGSAGG [r17_508_TrMRF]
Uom: kcal/mol
folding stability dG unfold: 2.8

Consider now this further sequence.
Fill in reported folding stability dG unfold for this entry: SAGGSAGGEFTVTVTIEKDEEKGFIRIPISVSLPSSAFVPKTVEFLEFAKTLKENLPELEVDASSAGGSAGG [r6_102_TrMRF] 0.65
